Quick reference for folding stability dG unfold among some sequences
# METHOD_NOTES: folding stability dG unfold from chymotrypsin proteolysis; higher = more stable
READOUT_NAME: folding stability dG unfold (kcal/mol)

1) SAGGSGGLRVELPFLLPDGYRVTLTVNPETGEITEIRVEPIDAVPPEPEVLPVVGFDPRYGVPLVLSAGGSA [r2_78_TrMRF] : 0.344
2) SAMDLSTLPPSTSVTPSTSSLPGNLSRSTYTLTTRDPETGALTVTTVTTYTDPSSSSTTVTPSTTLLPASAG [r14_307_JUSTAS] : 0.34
3) SAGGSAGGSAGGSGSSVLVKTTTTLSVAPGATITLPDGTVYTVPAGVPVTVTTWVLVETSAGGSAGGSAGGS [r4_232_JUSTAS] : 4.05
4) SAFKIERDPGNGQRKIKIEIPIIFPMGPEMRNMFKNMIKQWLAKHNPNVDIEIDIIPVKSPEQALEQIGSAG [r14_406_TrROS] : 2.61

###

# METHOD_NOTES: folding stability dG unfold from trypsin proteolysis; higher = more stable
Label 1.0 when folding stability dG unfold is at or above 1 kcal/mol; anything below gets 0.0.

1. SAGGKYKIEIEITEIKEKEDGTKEITIKIKIYDEETGELIYTITVKMRIDKKTNKIIIEEVKIEKLPPSAGG [r13_596_TrROS_Hall] : 1.0
2. SAGGSAGGSATVIIMVDPDDIEEALKEAPPNSKVMIHNPDNGYMFEITPNKLEIVEPIPPGDSAGGSAGGSA [r18_246_TrROS] : 0.0
3. SAGGMTLTIEIVVPPGTTVEELKKALEELGYEITSIEVEYDPETDLVTVRMEIRLPPPPPVSEEEKKSAGGS [r16_584_TrROS_Hall] : 1.0
4. SAGMEELAEELAKELEGEGLKVEVEVDPETGVVTVTAYSPESVTVVTITQDPNNDAFTVNTTTYPPLLSAGG [r19_2_JUSTAS] : 1.0
5. SAGGSAGMSTVTVPLTVELVDPNNGNLKKVIERPLTVPAELSLDEVKEIVREEAKKEGLTIAKILLSAGGSA [r15_195_JUSTAS] : 0.0
6. SANIQIMIEDWDPERGWIRISIQVDKGDPDKPITPELVNNIRELFRFRGIEVNIEVHPDGMVNIEIPIPSAG [r14_865_TrROS] : 1.0
7. SAGGSAGGSAKPKITVTVEEVTNEDGSTYYRATARIEETGRTIEIYVRRDDLGKPVAIKITSAGGSAGGSAG [r3_432_TrROS_Hall] : 1.0
8. MKEITVTLPVPEEVLAAIRAGKPLPLEEIKERVKEEIAKRLGYKNVTIKSVKVEKLPDGSLVIKVKVEFLPS [r1_290_JUSTAS] : 1.0
9. SAGGETRTFMFPFKPGMPLEEIIEELIDVLQKKGKDYPIEFKPIEPDPNGYMLFMATVTNNKITIFWSAGGS [r8_7_TrROS] : 1.0
10. SAMVLRLVVTVTGKIGDSLSTTTITREVSLEEYSEEELEALAEAVADAIRAANPEATVSLSILPEEELESAG [r14_723_JUSTAS] : 1.0
11. SAGGFVTFKAPPVLIEAFKKAGLTPSEAKTLLLPVKFGDKEVVVEVTFYPETGEVKVKVLSFGTEFEAESAG [r5_545_TrMRF] : 1.0
12. SDNFQPDMTFPVTEIGDDKVTMKYNGKPYYIPTSKITSPNVTVKITDGTVSEVSSPSPSPLPPENIKKLSSA [r9_842_JUSTAS] : 0.0
13. SSSVVESSYDPSTGTLTVTVSYDFPPAPPAAATSSTTPVGSNSYTGSGSYTSPAGASSLSSTATGPPTLSSA [r9_780_JUSTAS] : 1.0
14. SAGGSPTREVVLPTKDPTADKAFYTVRITLTEPPSNSTAVTVTFLDLPPDVEPSPELVAAVEAALSSAGGSA [r2_7_JUSTAS] : 0.0
15. SAGKPKIIEEKTITVPPGATLTIEFPPEVKRIEIINLDTGKTETIEIKPGEKLTFTFPPGSTVRVRVLSAGG [r19_118_TrROS_Hall] : 1.0
16. SAGGVEEAREALEEAGFEIVDVDEETGTVTVRNEETEETITVRVEAPAPPPVEVEEEVEVEEEEEEESAGGS [r16_197_TrROS_Hall] : 1.0
17. SMLNIPSDWKVITIKLEYKVEPGVSEEEVKEKAIEELKKKFPKNTKIEVEVTPDPETGTVTIKITIIIKKSA [r9_657_JUSTAS] : 1.0
18. SKTIMFQFDSIEEIKDFIKEAIDDGDPDQKIRIEWYPPGGRRQEHEIESPEDIIDFLENGPYWIRVEIEPSA [r9_589_TrROS] : 1.0
19. SAGGGPAAEVARLLREAGYDVEVEVEVFSREENPPLLPGEPLVVRVRVYATPPTGPRRPLGEFVVPVGSAGG [r13_874_TrMRF] : 1.0
20. SAGGSAGGSAGGMTPEEKIEALIKATPPLTVKTSGPGVSYEVEDLEKLKKLNVTISSVLGSAGGSAGGSAGG [r7_504_JUSTAS] : 0.0
21. SAGGSAGGSAGGGIVIEGDIESIEVEKNPDTDYYLVTVRFKSTDKPYTFVFKKDEKLDVSAGGSAGGSAGGS [r10_819_TrMRF] : 1.0
22. SPAGELVSSTFPVTVTVTVWRRLPDGTWTPVGTETFTVTVTVAGIPEEVAEALRKAAETPPPPPNLAGLLSA [r9_1192_TrMRF] : 1.0
23. SAGGSMLTPDQVIELPDPNVTATITESEVLEEDPEHGTLLVKYLVVISKNGNPVEEERLLRVPKPVSAGGSA [r2_272_JUSTAS] : 0.0
24. SAGGDWVPIEFTIMVPAEELQEGKPPTAEDIVEELFPPNFNVDIDVQQFPGNGYVYATVKIWVPPGMPSAGG [r13_862_TrROS] : 1.0
25. SAGGSAGGMVISLPNNYKIKLGITDAEFDEVKVYTGPNGPKKLVSGANIKLKIGISIYKSNDNSSAGGSAGG [r6_585_TrMRF] : 1.0
26. SAGGSAGGSAATKQITYTPPGSNRTYSFTATLTEEDPVTGRKLLELTLPDGTPITLPEGELGSAGGSAGGSA [r18_334_JUSTAS] : 0.0

Sourced from the supplement of paper PMC12764529
